Test: amyloid nucleation score (Sup35N fusion, yeast selection) (log enrichment); library NNK1; higher = more nucleation; inactive = no reads after selection;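 also: zero at mode of non-aggregating sequences after 7 days selection at 30°C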
Please mark yes (1) if the recorded amyloid nucleation score is equal to or greater than 0.8, and no (0) if it falls below.

>  <SUBSTANCE>
TKCHIQLYIALASVAGGSGF

>  <LABEL>
yes (1)

$$$$
>  <SUBSTANCE>
VVDFGSGCI

>  <LABEL>
no (0)

$$$$
>  <SUBSTANCE>
VVFRGIVCCCQ

>  <LABEL>
no (0)

$$$$
>  <SUBSTANCE>
TGKAVTSGWKNIVSSITSQR

>  <LABEL>
no (0)

$$$$
>  <SUBSTANCE>
CLWGILDEGRFGSWFNNFAS

>  <LABEL>
no (0)

$$$$
>  <SUBSTANCE>
VGFYCHLCGYLVWGRWKHSA

>  <LABEL>
yes (1)

$$$$
>  <SUBSTANCE>
RSHHIWGY

>  <LABEL>
no (0)

$$$$
>  <SUBSTANCE>
MLVLRMYYTRNS

>  <LABEL>
yes (1)

$$$$
>  <SUBSTANCE>
YFRRCFDRCVMSRLRPI

>  <LABEL>
no (0)

$$$$
>  <SUBSTANCE>
IYFTSTMKLRQDILADNEHC

>  <LABEL>
yes (1)

$$$$
>  <SUBSTANCE>
DHIEMFGKVGYYHNMILW

>  <LABEL>
no (0)

$$$$
>  <SUBSTANCE>
YMEKWAWRVVNESCASVVPP

>  <LABEL>
no (0)

$$$$
>  <SUBSTANCE>
CWVYFSNSSVILRR

>  <LABEL>
no (0)

$$$$
>  <SUBSTANCE>
MGTDRMCHS

>  <LABEL>
no (0)

$$$$
>  <SUBSTANCE>
CRDRRS

>  <LABEL>
yes (1)

$$$$
>  <SUBSTANCE>
LVPWGSFFALA

>  <LABEL>
no (0)

$$$$
>  <SUBSTANCE>
TFWVGEKSRVGSVPFQYLRL

>  <LABEL>
no (0)

$$$$

* * *

Assay: amyloid nucleation score (Sup35N fusion, yeast selection) (log enrichment); library NNK3; higher = more nucleation; inactive = no reads after selection
PROPERTY NAME: amyloid nucleation score

>  <SUBSTANCE>
SIMLFWVTGRLLRLSLLMLL

>  <RESULT>
0.45

$$$$
>  <SUBSTANCE>
VRKVSTAPAELHAIKSGDTH

>  <RESULT>
inactive

$$$$
>  <SUBSTANCE>
SQKFGALVFI

>  <RESULT>
inactive

$$$$
>  <SUBSTANCE>
FSIDTNGSCYRIDARHVK

>  <RESULT>
inactive

$$$$
>  <SUBSTANCE>
SYWLCEVMTLYFFNCFYVLG

>  <RESULT>
inactive

$$$$
>  <SUBSTANCE>
NGLLNRQSTSWWSTLNYCGD

>  <RESULT>
inactive

$$$$
>  <SUBSTANCE>
CSLRLVAFSACGV

>  <RESULT>
inactive

$$$$
>  <SUBSTANCE>
HSRTMVLMCIAMIRVLGYGF

>  <RESULT>
inactive

$$$$
>  <SUBSTANCE>
RRSKISLS

>  <RESULT>
inactive

$$$$
>  <SUBSTANCE>
YVYSVFFYRWW

>  <RESULT>
inactive

$$$$
>  <SUBSTANCE>
SQVDIMGKPADAFVPWFDGS

>  <RESULT>
inactive

$$$$
>  <SUBSTANCE>
GFIMEYDEY

>  <RESULT>
inactive

$$$$
>  <SUBSTANCE>
HTDWICYRRWYCIASRAMYQ

>  <RESULT>
inactive

$$$$
>  <SUBSTANCE>
MKLDICWLRLSRCYVVVVWV

>  <RESULT>
inactive

$$$$
>  <SUBSTANCE>
GSSAPKWVWNWFVPYGKRQG

>  <RESULT>
1.3

$$$$
>  <SUBSTANCE>
TEYVMSQNHLKQW

>  <RESULT>
inactive

$$$$
>  <SUBSTANCE>
SNRIYHVVFID

>  <RESULT>
1.89

$$$$
>  <SUBSTANCE>
RKMDLVDKSMSTIGYLAHHG

>  <RESULT>
-0.63

$$$$
>  <SUBSTANCE>
VALAGNYCSANVVHCMFLNL

>  <RESULT>
inactive

$$$$
>  <SUBSTANCE>
FTFLMDRY

>  <RESULT>
-0.083

$$$$
>  <SUBSTANCE>
WNMNYVQFDGNVLVNAD

>  <RESULT>
inactive

$$$$
>  <SUBSTANCE>
LLLFRGAYRLQISAFCLCTE

>  <RESULT>
inactive

$$$$
>  <SUBSTANCE>
DYGATGHC

>  <RESULT>
inactive

$$$$
>  <SUBSTANCE>
DVSWRTPYTIKNYGSFFLIK

>  <RESULT>
inactive

$$$$
>  <SUBSTANCE>
GLLSPRTGCD

>  <RESULT>
inactive

$$$$
>  <SUBSTANCE>
MHSTVVEHLLWLTFTPGYKL

>  <RESULT>
inactive

$$$$
>  <SUBSTANCE>
TIGDACFVGKEAWAFANWEY

>  <RESULT>
inactive

$$$$
>  <SUBSTANCE>
LNGMFG

>  <RESULT>
inactive

$$$$
>  <SUBSTANCE>
EQGSSLHRHNHFVTLMGCRG

>  <RESULT>
inactive

$$$$
>  <SUBSTANCE>
PCQDWARYAPGLPLPMGLAL

>  <RESULT>
-0.293

$$$$
>  <SUBSTANCE>
RLWLYR

>  <RESULT>
inactive

$$$$
>  <SUBSTANCE>
GVNVWRYLCH

>  <RESULT>
inactive

$$$$
>  <SUBSTANCE>
WVYDSTIRHHH

>  <RESULT>
inactive

$$$$
>  <SUBSTANCE>
HKPCRCKTMLWDLAIVGSLE

>  <RESULT>
inactive

$$$$
>  <SUBSTANCE>
NYLVVLMGSTCMKVRPLGVS

>  <RESULT>
inactive

$$$$
>  <SUBSTANCE>
TVTFYNCIVGCVSNWVSVQG

>  <RESULT>
1.77

$$$$
>  <SUBSTANCE>
KDLNENGRLFIIDPIIFSMF

>  <RESULT>
inactive

$$$$
